Target: HIV-1 JR-CSF Env R327A (HIV-1 isolate JR-CSF) (UniProt P20871)
Test: cell-based or functional assay
Give measured Fold IC50 increase relative to wild-type for each item. Keep answers brief.
Give the number; fold is assumed, so skip it.

Ask: Any idea what its Fold IC50 increase relative to wild-type is? The binder is PGT-123 (antibody, V domains shown) VH: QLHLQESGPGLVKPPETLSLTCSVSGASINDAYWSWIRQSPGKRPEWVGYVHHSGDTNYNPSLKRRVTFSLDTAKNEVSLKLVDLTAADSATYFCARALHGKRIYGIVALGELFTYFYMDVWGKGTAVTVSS VL: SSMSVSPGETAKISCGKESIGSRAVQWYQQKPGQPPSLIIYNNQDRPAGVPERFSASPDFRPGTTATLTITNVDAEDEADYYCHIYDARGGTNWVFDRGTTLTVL
Reply: 1.7

Ask: GET /values?readout=Fold IC50 increase relative to wild-type&item= PGT-125 (antibody, V domains shown) VH: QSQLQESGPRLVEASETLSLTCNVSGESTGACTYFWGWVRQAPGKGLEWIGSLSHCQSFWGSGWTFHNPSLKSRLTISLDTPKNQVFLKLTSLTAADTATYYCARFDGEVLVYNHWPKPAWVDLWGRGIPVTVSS VL: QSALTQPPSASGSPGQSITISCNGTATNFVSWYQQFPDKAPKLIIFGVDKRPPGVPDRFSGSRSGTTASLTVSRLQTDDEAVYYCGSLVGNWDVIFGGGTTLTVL
Reply: 2.1

Ask: Report Fold IC50 increase relative to wild-type for PGT-128 (antibody, V domains shown) VH: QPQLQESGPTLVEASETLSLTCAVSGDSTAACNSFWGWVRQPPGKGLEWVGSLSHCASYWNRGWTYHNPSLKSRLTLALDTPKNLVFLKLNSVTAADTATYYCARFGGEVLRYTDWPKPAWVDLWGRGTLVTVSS VL: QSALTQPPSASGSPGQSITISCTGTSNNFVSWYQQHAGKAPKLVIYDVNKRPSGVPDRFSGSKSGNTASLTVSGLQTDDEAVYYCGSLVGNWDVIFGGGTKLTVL please.
Reply: 2.5
